# Test system: MDA-MB-435 melanoma
# protocol.summary: NCI-60 one-dose screen, 48 h (100 = growth as untreated, 0 = no growth, -100 = all killed)
# condition.summary: 10 µM unless noted
This is part of a sample that, as a whole, favours compounds with a hit. Of some 83,000 tested, about 20% had one in any assay.
A collection of compounds and their measured growth
property.name: growth (%)

In [3]: df
Out[3]:
                         structure_notation  value_units  reading
0  CCOC(=O)c1c(NC(=S)Nc2ccc([N+](=O)[O-])cc2)sc2c1CCCCC2            %     88.2
1  COc1ccc(C(=O)/C=C/c2ccc(C)cc2)cc1S(N)(=O)=O            %     88.3
2  CC1(C)CC[C@]2(CO)CC[C@]3(C)[C@H](CC[C@@H]4[C@@]5(C)CC[C@H](O)C(C)(C)[C@@H]5CC[C@]43C)[C@H]2[C@H]1O            %     91.5

----------
# Test system: U251 CNS
# protocol.summary: NCI-60 one-dose screen, 48 h (100 = growth as untreated, 0 = no growth, -100 = all killed)
# condition.summary: 10 µM unless noted
Compounds without any hit were thinned out: in the full panel of roughly 83,000, 20% have a hit.
A collection of compounds and their measured growth
property.name: growth (%)

                                   compound  property_name  reading
0               N#Cc1nn(-c2ccccn2)c(N)c1C#N         growth      103
1  Nc1ncc(-c2ccc3ncnc(N4CCc5cc(F)c(Cl)cc54)c3c2)cc1C(F)(F)F         growth     47.8
2  O=C1c2ccccc2C(=O)c2cc(Cn3c[n+](Cc4ccc5ccccc5c4)c4ccccc43)ccc21         growth     57.1
3  CCNc1nc(-c2ccc(Cl)c(OC)c2)c(-c2ccnc(NCCNS(=O)(=O)c3ccc(Cl)cc3)n2)s1         growth     17.3
4  N#CC1=C(N)Oc2c(ccc3ccccc23)C1c1cc2ccccc2n2nnnc12 (stereo not drawn)         growth     18.7
5  O=C(Nc1ncc(Cc2ccccc2)s1)c1cc(-c2ccccc2)nc2ccccc12         growth     98.2
6  O=C1CCC(C(=O)N/N=C/c2ccc([N+](=O)[O-])cc2)N1 (stereo not drawn)         growth      102
7  CN1CCN(c2ccc(Nc3ncc4[nH]c(=O)n(Cc5ccccc5N)c4n3)cc2)CC1         growth      100

----------
# System: NCI-H460 lung
# protocol.summary: NCI-60 one-dose screen, 48 h (100 = growth as untreated, 0 = no growth, -100 = all killed)
# condition.summary: 10 µM unless noted
# Protocol: Growth inhibition of the NCI-H460 human Non-Small Cell Lung tumor cell line is measured as a screen for anti-cancer activity. Cells are grown in 96 well plates and exposed to the test compound for 48 hours. Compounds are tested at a single concentration, which is 10^-5 M for most compounds. The reported endpoint is percent growth (GI% or GIPRCNT), where numbers from 0 - 100% represent growth inhibition, and numbers from -100% - 0 represent cell death. […]
Compounds without any hit were thinned out: in the full panel of roughly 83,000, 20% have a hit.
Exam item: assign Satisfied to entries whose growth is below 70% and Not satisfied to entries at or above 70%. Note that a value of exactly 70% receives Not satisfied.

compound	cat
CC(=O)Cc1nsc(NC(=O)c2cc(-c3cc(Cl)ccc3Cl)oc2C)n1	Not satisfied
CCCCCCCCNC(=O)[C@@H](N)CSCOC(C)=O	Not satisfied
CC(=O)Oc1ccccc1C(=O)N(Cc1ccc2c(Cl)cc(Cl)c(O)c2n1)c1ccccc1	Satisfied
COc1ccc(-c2cc(-c3ccc(N(C)C)cc3)nc(NC(=O)c3cccnc3)n2)cc1	Not satisfied
O=S(=O)(Nc1ccc(Br)cc1)c1ccc(-c2cnc(C3CC3)o2)cc1	Satisfied
N#CC1=C(N)Oc2c(ccc3ccccc23)C1c1cc2ccccc2n2nnnc12 (stereo unspecified)	Satisfied
O=C(Nc1ccc(Oc2cccc(F)c2)c(Cl)c1)c1cnccn1	Satisfied
O=C(/C=C/c1ccc([N+](=O)[O-])cc1)c1cccc(Nc2nc(Nc3ccccc3)nc(Nc3ccccc3)n2)c1	Not satisfied
C=C(c1ccc(OC)c(/C=C/C(=O)c2cc(OC)c(OC)c(OC)c2)c1)c1cc(OC)c(OC)c(OC)c1	Satisfied
Cc1c(N2CCCCC2)[nH]c2ccccc12	Not satisfied
COc1ccc(C(=O)/C=C/c2ccc(Cl)cc2)cc1S(N)(=O)=O	Satisfied
CCOC(=O)CSc1nc2sc3c(c2c(=O)n1-c1ccccc1)CCCCC3	Not satisfied
c1ccc2cc(Cn3cc[n+](Cc4ccc5ccccc5c4)c3)ccc2c1	Satisfied
CCOC(=O)C#Cc1c(CC(=O)OCC)nnn1[C@H]1O[C@@H](CO)[C@@H]2OC(C)(C)O[C@@H]21	Not satisfied
CO[C@H]1/C=C/O[C@@]2(C)Oc3c(C)c(O)c4c(O)c(c5c(nc6cc(C)ccn65)c4c3C2=O)NC(=O)/C(C)=C\C=C\[C@H](C)[C@H](O)[C@@H](C)C(O)[C@@H](C)[C@H](OC(C)=O)[C@@H]1C (stereo partly specified)	Not satisfied
O=C(Oc1ccccc1)c1cc(O)c(O)c(O)c1	Satisfied
